Settings: in isopropanol, 308.15 K
Endpoint: solubility (mole fraction)
Give bare numbers.

Output measured solubility (mole fraction) for this item: "c1ccc2c(c1)sc1ccccc12"
0.0111

* * *

Details: in n-butanol, 288.15 K
Endpoint: solubility (mole fraction)
Numbers only.

Output measured solubility (mole fraction) for this item: "c1ccc2c(c1)sc1ccccc12"
0.00788

* * *

Settings: in formic acid, 323.15 K
Endpoint: solubility (mole fraction)
Give bare numbers.

Output measured solubility (mole fraction) for this item: "c1ccc2c(c1)sc1ccccc12"
0.00157

* * *

Details: in methanol, 323.15 K
Endpoint: solubility (mole fraction)
One number for each entry.

Output measured solubility (mole fraction) for this item: "c1ccc2c(c1)sc1ccccc12"
0.00668

* * *

Details: in ethanol, 278.15 K
Endpoint: solubility (mole fraction)
Numbers only.

Output measured solubility (mole fraction) for this item: "c1ccc2c(c1)sc1ccccc12"
0.00347

* * *

Settings: in n-butanol, 313.15 K
Endpoint: solubility (mole fraction)
Numbers only.

Output measured solubility (mole fraction) for this item: "c1ccc2c(c1)sc1ccccc12"
0.0242

* * *

Details: in n-butanol, 303.15 K
Endpoint: solubility (mole fraction)
One number for each entry.

Output measured solubility (mole fraction) for this item: "c1ccc2c(c1)sc1ccccc12"
0.016

* * *

Conditions: in methanol, 318.15 K
Endpoint: solubility (mole fraction)
Numbers only.

Output measured solubility (mole fraction) for this item: "c1ccc2c(c1)sc1ccccc12"
0.00573

* * *

Settings: in isopropanol, 303.15 K
Endpoint: solubility (mole fraction)
Numbers only.

Output measured solubility (mole fraction) for this item: "c1ccc2c(c1)sc1ccccc12"
0.00874

* * *

Settings: in methanol, 303.15 K
Endpoint: solubility (mole fraction)

Output measured solubility (mole fraction) for this item: "c1ccc2c(c1)sc1ccccc12"
0.00331

* * *

Settings: in formic acid, 278.15 K
Endpoint: solubility (mole fraction)
Numbers only.

Output measured solubility (mole fraction) for this item: "c1ccc2c(c1)sc1ccccc12"
0.000475

* * *

Conditions: in methanol, 283.15 K
Endpoint: solubility (mole fraction)
Numbers only.

Output measured solubility (mole fraction) for this item: "c1ccc2c(c1)sc1ccccc12"
0.00163

* * *

Conditions: in n-butanol, 323.15 K
Endpoint: solubility (mole fraction)
One number for each entry.

Output measured solubility (mole fraction) for this item: "c1ccc2c(c1)sc1ccccc12"
0.0381

* * *

Conditions: in isopropanol, 278.15 K
Endpoint: solubility (mole fraction)
Give bare numbers.

Output measured solubility (mole fraction) for this item: "c1ccc2c(c1)sc1ccccc12"
0.00245

* * *

Conditions: in formic acid, 328.15 K
Endpoint: solubility (mole fraction)
Answers are plain numbers.

Output measured solubility (mole fraction) for this item: "c1ccc2c(c1)sc1ccccc12"
0.00177

* * *

Details: in acetonitrile, 303.15 K
Endpoint: solubility (mole fraction)
Answers are plain numbers.

Output measured solubility (mole fraction) for this item: "c1ccc2c(c1)sc1ccccc12"
0.0189

* * *

Settings: in acetonitrile, 323.15 K
Endpoint: solubility (mole fraction)
Answers are plain numbers.

Output measured solubility (mole fraction) for this item: "c1ccc2c(c1)sc1ccccc12"
0.0506

* * *

Conditions: in formic acid, 298.15 K
Endpoint: solubility (mole fraction)
One number for each entry.

Output measured solubility (mole fraction) for this item: "c1ccc2c(c1)sc1ccccc12"
0.000881

* * *

Details: in formic acid, 318.15 K
Endpoint: solubility (mole fraction)

Output measured solubility (mole fraction) for this item: "c1ccc2c(c1)sc1ccccc12"
0.0014

* * *

Details: in formic acid, 283.15 K
Endpoint: solubility (mole fraction)
Answers are plain numbers.

Output measured solubility (mole fraction) for this item: "c1ccc2c(c1)sc1ccccc12"
0.000578

* * *

Details: in formic acid, 293.15 K
Endpoint: solubility (mole fraction)

Output measured solubility (mole fraction) for this item: "c1ccc2c(c1)sc1ccccc12"
0.000756

* * *

Conditions: in isopropanol, 328.15 K
Endpoint: solubility (mole fraction)
Numbers only.

Output measured solubility (mole fraction) for this item: "c1ccc2c(c1)sc1ccccc12"
0.0249

* * *

Conditions: in formic acid, 288.15 K
Endpoint: solubility (mole fraction)

Output measured solubility (mole fraction) for this item: "c1ccc2c(c1)sc1ccccc12"
0.000668

* * *

Conditions: in methanol, 293.15 K
Endpoint: solubility (mole fraction)
One number for each entry.

Output measured solubility (mole fraction) for this item: "c1ccc2c(c1)sc1ccccc12"
0.00242

* * *

Conditions: in ethanol, 283.15 K
Endpoint: solubility (mole fraction)
Answers are plain numbers.

Output measured solubility (mole fraction) for this item: "c1ccc2c(c1)sc1ccccc12"
0.00433

* * *

Details: in ethanol, 318.15 K
Endpoint: solubility (mole fraction)
Give bare numbers.

Output measured solubility (mole fraction) for this item: "c1ccc2c(c1)sc1ccccc12"
0.0148

* * *

Settings: in n-butanol, 318.15 K
Endpoint: solubility (mole fraction)

Output measured solubility (mole fraction) for this item: "c1ccc2c(c1)sc1ccccc12"
0.0303

* * *

Conditions: in isopropanol, 293.15 K
Endpoint: solubility (mole fraction)
One number for each entry.

Output measured solubility (mole fraction) for this item: "c1ccc2c(c1)sc1ccccc12"
0.00577

* * *

Details: in acetonitrile, 318.15 K
Endpoint: solubility (mole fraction)

Output measured solubility (mole fraction) for this item: "c1ccc2c(c1)sc1ccccc12"
0.0402

* * *

Details: in isopropanol, 288.15 K
Endpoint: solubility (mole fraction)
Answers are plain numbers.

Output measured solubility (mole fraction) for this item: "c1ccc2c(c1)sc1ccccc12"
0.00436

* * *

Details: in n-butanol, 298.15 K
Endpoint: solubility (mole fraction)

Output measured solubility (mole fraction) for this item: "c1ccc2c(c1)sc1ccccc12"
0.0132

* * *

Settings: in acetonitrile, 283.15 K
Endpoint: solubility (mole fraction)
One number for each entry.

Output measured solubility (mole fraction) for this item: "c1ccc2c(c1)sc1ccccc12"
0.00611

* * *

Conditions: in methanol, 308.15 K
Endpoint: solubility (mole fraction)
One number for each entry.

Output measured solubility (mole fraction) for this item: "c1ccc2c(c1)sc1ccccc12"
0.00406

* * *

Settings: in isopropanol, 318.15 K
Endpoint: solubility (mole fraction)
Numbers only.

Output measured solubility (mole fraction) for this item: "c1ccc2c(c1)sc1ccccc12"
0.0162

* * *

Settings: in ethanol, 308.15 K
Endpoint: solubility (mole fraction)
Numbers only.

Output measured solubility (mole fraction) for this item: "c1ccc2c(c1)sc1ccccc12"
0.0105

* * *

Conditions: in methanol, 278.15 K
Endpoint: solubility (mole fraction)
Give bare numbers.

Output measured solubility (mole fraction) for this item: "c1ccc2c(c1)sc1ccccc12"
0.00126

* * *

Details: in ethanol, 298.15 K
Endpoint: solubility (mole fraction)
Numbers only.

Output measured solubility (mole fraction) for this item: "c1ccc2c(c1)sc1ccccc12"
0.0075

* * *

Conditions: in acetonitrile, 313.15 K
Endpoint: solubility (mole fraction)
Numbers only.

Output measured solubility (mole fraction) for this item: "c1ccc2c(c1)sc1ccccc12"
0.0321

* * *

Details: in acetonitrile, 328.15 K
Endpoint: solubility (mole fraction)
One number for each entry.

Output measured solubility (mole fraction) for this item: "c1ccc2c(c1)sc1ccccc12"
0.0639

* * *

Conditions: in isopropanol, 298.15 K
Endpoint: solubility (mole fraction)
One number for each entry.

Output measured solubility (mole fraction) for this item: "c1ccc2c(c1)sc1ccccc12"
0.00703

* * *

Conditions: in isopropanol, 323.15 K
Endpoint: solubility (mole fraction)
Give bare numbers.

Output measured solubility (mole fraction) for this item: "c1ccc2c(c1)sc1ccccc12"
0.0202

* * *

Conditions: in n-butanol, 283.15 K
Endpoint: solubility (mole fraction)
One number for each entry.

Output measured solubility (mole fraction) for this item: "c1ccc2c(c1)sc1ccccc12"
0.00621

* * *

Conditions: in ethanol, 293.15 K
Endpoint: solubility (mole fraction)
Answers are plain numbers.

Output measured solubility (mole fraction) for this item: "c1ccc2c(c1)sc1ccccc12"
0.00619

* * *

Details: in methanol, 328.15 K
Endpoint: solubility (mole fraction)
Answers are plain numbers.

Output measured solubility (mole fraction) for this item: "c1ccc2c(c1)sc1ccccc12"
0.00795

* * *

Details: in acetonitrile, 293.15 K
Endpoint: solubility (mole fraction)
One number for each entry.

Output measured solubility (mole fraction) for this item: "c1ccc2c(c1)sc1ccccc12"
0.0128

* * *

Conditions: in formic acid, 308.15 K
Endpoint: solubility (mole fraction)

Output measured solubility (mole fraction) for this item: "c1ccc2c(c1)sc1ccccc12"
0.00112

* * *

Conditions: in n-butanol, 293.15 K
Endpoint: solubility (mole fraction)
Give bare numbers.

Output measured solubility (mole fraction) for this item: "c1ccc2c(c1)sc1ccccc12"
0.00999

* * *

Settings: in ethanol, 313.15 K
Endpoint: solubility (mole fraction)
Numbers only.

Output measured solubility (mole fraction) for this item: "c1ccc2c(c1)sc1ccccc12"
0.0127
